The origin of these recorded values is ChEMBL document CHEMBL1157539.

- System: Plasmodium falciparum
- experiment: GSK_TCMDC: Inhibition of Plasmodium falciparum Dd2 in whole red blood cells, using parasite LDH activity as an index of growth. Test compounds present at 2uM
- Assay type: functional
Label 1 for high-side Inhibition (at or above 90%) and -1 for low-side Inhibition (below it).

Example results:
CC1CN(c2ccc3occ(C(=O)Nc4ccc(-c5ccncc5)c(Cl)c4)c3c2)CC(C)N1C.Cl (stereo unspecified)    1
Oc1cc2c(cc1CN1CCN(Cc3ccc(Cl)s3)CC1)CCC2    -1
CCCNCc1ccc(-c2ccc(CN(Cc3ccc4c(c3)OCO4)C(=O)[C@H]3CCCO3)cc2)nc1.O=C(O)C(F)(F)F    -1
N#Cc1ccc(N2C[C@@H](OCc3ccccc3)C[C@H]2C(=O)NCCC(c2ccccc2)c2ccccc2)c2ccccc12    1
Cc1cc(=NN=Cc2cccc(Cl)c2)c2cc(F)ccc2[nH]1    1

# input // inclusive: Inhibition at least 90%? input: COc1ccc(C(=O)NC(Nc2ccc([N+](=O)[O-])cc2)C(Cl)(Cl)Cl)cc1 (stereo unspecified)
# output -1

# input // inclusive: Inhibition at least 90%? input: O=C(N[C@H](CC1CCCCC1)C(=O)NC1CCCc2ccccc21)c1ccc(O)c(-c2cccc([N+](=O)[O-])c2)c1 (stereo partly specified)
# output 1

# input // inclusive: Inhibition at least 90%? input: `Cc1cccc(Oc2cccc3[nH]nc(N)c23)c1`
# output -1

# input // inclusive: Inhibition at least 90%? input: NCC1CCCN1Cc1ccc(-c2cccc(-c3nc4cc(F)ccc4[nH]3)c2)cc1.O=C(O)C(F)(F)F (stereo unspecified)
# output -1

# input // inclusive: Inhibition at least 90%? input: `O=C(NCCc1ccccc1)N(Cc1ccc(-c2cccc(CN3CCNCC3)c2)cc1)C1CCN(Cc2ccccc2)CC1.O=C(O)C(F)(F)F`
# output -1

# input // inclusive: Inhibition at least 90%? input: `CC(C)(C)c1ccc(NC(=O)Nc2ccc(Cn3ncc(N4CCCNCC4)c(Cl)c3=O)cc2)cc1.O=C(O)C(F)(F)F`
# output -1

# input // inclusive: Inhibition at least 90%? input: `CCN(CC)CCN(Cc1ccc(-c2ccc(C(F)(F)F)cc2)cc1)C(=O)Cn1c(CCc2cccc(F)c2F)cc(=O)c2c1CCCC2.O=C(O)C(O)C(O)C(=O)O`
# output 1

# input // inclusive: Inhibition at least 90%? input: `CCCCNC[C@@H](O)[C@H](Cc1ccccc1)NC(=O)c1cc2c3c(c1)c(CC)cn3CCS(=O)(=O)N2C.O=CO`
# output 1

# input // inclusive: Inhibition at least 90%? input: COc1ccc(Br)cc1C1C2C(=O)N(c3ccc(Br)cc3)C(=O)C2C2(C(=O)O)CC(OCc3ccccc3)CN12 (stereo unspecified)
# output 1

# input // inclusive: Inhibition at least 90%? input: `NC(=O)C1CCN(Cc2cccc(-c3cccc(-c4nc5cc(F)ccc5[nH]4)c3)c2)CC1.O=C(O)C(F)(F)F`
# output -1

# input // inclusive: Inhibition at least 90%? input: `CCCC1(NC[C@@H](O)[C@H](Cc2ccccc2)NC(=O)c2cc(NCC)cc(N3CCCCS3(=O)=O)c2)CCCC1.Cl`
# output 1

# input // inclusive: Inhibition at least 90%? input: `Cc1cc(Nc2nc(Nc3cccc(Cl)c3)nc3ccccc23)n[nH]1`
# output 1

# input // inclusive: Inhibition at least 90%? input: `CN(C)CCC1CCN(CCS(=O)(=O)c2cccc(Nc3ccc(-c4cccc(F)c4)cn3)c2)CC1`
# output -1

# input // inclusive: Inhibition at least 90%? input: `CNC(=O)/C=C/c1cc(NC(=O)Nc2cc(C)nc3c(F)cccc23)ccc1OC`
# output -1

# input // inclusive: Inhibition at least 90%? input: Nc1c(Cl)cc(C(O)CNCCCCCCOCCc2ccc(CO)s2)cc1Cl.O=C(O)/C=C/C(=O)O (stereo unspecified)
# output -1

# input // inclusive: Inhibition at least 90%? input: `Cc1cccc2nc(-c3ccc(-c4cccc(NC(=O)c5cnccc5C(F)(F)F)c4)cc3)[nH]c12`
# output -1

# input // inclusive: Inhibition at least 90%? input: `COc1ccc(F)cc1-c1ccccc1CNC(=O)c1cnn(-c2ccc([N+](=O)[O-])cc2)c1C(F)(F)F`
# output -1

# input // inclusive: Inhibition at least 90%? input: `Cl.Cn1ncc2c3c(CCN4CCC(NCc5cc6c(cn5)OCC6)CC4)c(Cl)cnc3ccc21`
# output -1

---

- Tested on: HepG2
- experiment: GSK_TCMDC: Percent inhibition of human HepG2 cell line. Test compounds present at 10uM.
- Format: functional
experimental.endpoint: Inhibition
Respond with a number, then the unit of measure.

Use the examples below as a reference point.
Cc1cc(O)nc(NC(=N)NOCc2ccccc2)n1    0%
N=C(N)NCCN(Cc1ccccc1)c1ccc(Cl)cc1    0%
Cc1ccc(C(=O)Cn2nc(-c3ccc(C)c(S(=O)(=O)N4CCCCC4)c3)ccc2=O)cc1    6%
CN(C)Cc1ccc(-c2ccc(NC(=O)c3ccc4c(=O)n(Cc5ccccc5)cnc4c3)cc2)cc1    94%
COc1cc(CNC[C@@H](O)[C@H](Cc2ccccc2)NC(=O)c2cc(OC(C)C)cc(N3CCCCS3(=O)=O)c2)cc(OC)c1.Cl    7%
CCOC(=O)c1c(C)n(-c2ccc(Cl)cc2)c2ccc(OC(=O)C=Cc3ccccc3)cc12    3%
CS(=O)(=O)NCCCNCc1cccc(-c2csc(-c3nc4ccccc4[nH]3)c2)c1.O=C(O)C(F)(F)F    23%
O=C(Nc1cc(Cl)ccc1O)c1cnn2c(C(F)(F)F)cc(-c3cccs3)nc12    8%

# input Recorded Inhibition for OC1CCC(Nc2ccc3ncc(-c4ccc(Cl)cc4)n3n2)CC1 (stereo not drawn) , please?
# output 57%

# input Recorded Inhibition for N#Cc1cccc(C(=O)NC2CCN(c3ccnc(Nc4ccc(F)cc4)n3)C2)c1 (stereo not drawn) , please?
# output 4%

# input Recorded Inhibition for `CCN(CC)CCN(Cc1ccc(-c2ccc(C(F)(F)F)cc2)cc1)C(=O)Cn1c(/C=C/c2ccco2)nc(=O)c2ccccc21.O=C(O)C(O)C(O)C(=O)O` , please?
# output 28%

# input Recorded Inhibition for CCCC1(C)CSc2ccccc2C(c2ccccc2)N1 (stereo not drawn) , please?
# output 60%

# input Recorded Inhibition for `CC(C)COc1ccc(Cl)cc1Nc1nc(-c2nc3ccccc3[nH]2)cs1.Cl` , please?
# output 2%

# input Recorded Inhibition for `COc1ccc(S(=O)(=O)N(CC(=O)NN=C(C)c2cccs2)c2cc(C)cc(C)c2)cc1OC` , please?
# output 12%

# input Recorded Inhibition for CCNc1cc(C(=O)N[C@@H](Cc2ccccc2)[C@H](O)CNC(C)Cc2cccc(Cl)c2)cc(N2CCCCS2(=O)=O)c1.Cl (stereo partly drawn) , please?
# output 0%

# input Recorded Inhibition for Cc1ccccc1C1CCN(C2CCC(NC(=O)/C=C/c3ccc(C#N)cc3)CC2)CC1 (stereo not drawn) , please?
# output 39%

# input Recorded Inhibition for `COc1cc(NCCCNCC2c3ccccc3Oc3ccccc32)nc2ccccc12.O=C(O)C(F)(F)F` , please?
# output 99%

# input Recorded Inhibition for `COC(=O)c1cccc(CNCc2ccc(-c3ccc(-c4nc5cc(C(F)(F)F)ccc5[nH]4)cc3)cc2)c1.O=C(O)C(F)(F)F` , please?
# output 22%

---

Inhibition values by entry
- Tested on: Plasmodium falciparum
- experiment: GSK_TCMDC: Inhibition of Plasmodium falciparum Dd2 in whole red blood cells, using parasite LDH activity as an index of growth. Test compounds present at 2uM
- Assay type: functional
# number only, unit % dropped from output

Use the examples below as a reference point.
Cl.Nc1c2c(nc3cc(NC(=O)c4ccc([N+](=O)[O-])cc4)ccc13)CCCC2    58
CN(C)C(=O)CN1CCN(c2ncnc(N3CCc4c([nH]c5ccccc45)[C@@H]3c3ccc4c(c3)CCO4)n2)CC1    98
COc1ccc(CN2CCC(CN3CC4(OC3=O)c3ccccc3-c3ccccc34)C2)c(O)c1 (stereo not given)    79
Cc1c(F)cc(C(=O)NC2CC2)cc1-c1ccc2c(cnn2S(=O)(=O)c2ccc(F)c(F)c2)c1    76
CC1CN(Cc2cccc(C#N)c2)CCN1c1ccc(NC(=O)c2cccs2)cc1.O=C(O)C(F)(F)F (stereo not given)    93

Now look at this entry.
# input Recorded Inhibition for `O=C(Cc1ccc(NC(=O)c2ccc(O)c(-c3ccc(Cl)c(Cl)c3)c2)cc1)NCc1cccc(C(F)(F)F)c1` , please?
# output 28

---

- System: Plasmodium falciparum
- experiment: GSK_TCMDC: Inhibition of Plasmodium falciparum 3D7 in whole red blood cells, using parasite LDH activity as an index of growth. Test compounds present at 2uM
- Format: functional
Label condition met for high-side Inhibition (at or above 90%) and condition not met for low-side Inhibition (below it).

Example results:
COc1cc(NC(=O)/C=C/c2ccccc2OC(F)(F)F)cc(OCCN2CCC(O)(c3ccccc3)CC2)c1.O=C(O)C(=O)O    condition met
COc1ccccc1NC(=O)Nc1ccc(-c2ccc(-c3nc4cc(C(F)(F)F)ccc4[nH]3)cc2)cc1    condition met
O=C(Cn1c(CCc2cccc(F)c2F)nc(=O)c2ccccc21)N(Cc1ccc(-c2ccc(C(F)(F)F)cc2)cc1)C1CCN(C2=NCCS2)CC1.O=C(O)C(O)C(O)C(=O)O    condition not met

# input // inclusive: Inhibition at least 90%? input: Cc1nc(NCc2ccccc2)cc(NCC(O)c2ccc(O)cc2)n1 (configuration not stated)
# output condition not met
